Assay: Drug concentrations in plasma samples and brain tissue samples after oral administration, LC-MS/MS
Type: in vivo, female C57BL/6 mice
Conditions: female, C57BL/6, mouse, brain/plasma, 90 mg/kg, 90 mg QD oral, 15 consecutive days, 2Hr after the last dose, mice, read-out: Ratio (brain tissue to plasma concentration)
MEASURED PROPERTY: Kp at 2 h

* [2H]C([2H])([2H])Oc1c(-c2cnn(C)n2)ccnc1Nc1cc(NC(=O)[C@H]2CC23CC3)ncc1C(=O)CC | 1.32

====

Assay: Drug concentrations in plasma samples and brain tissue samples after oral administration, LC-MS/MS
Format: in vivo, female C57BL/6 mice
Conditions: female, C57BL/6, mouse, brain, 10 mg/kg, 10 mg QD oral, 15 consecutive days, 2Hr after the last dose, mice, read-out: concentration in brain
MEASURED PROPERTY: concentration at 2 h (ng/mL)

• [2H]C([2H])([2H])Oc1c(-c2cnn(C)n2)ccnc1Nc1cc(NC(=O)[C@H]2CC23CC3)ncc1C(=O)CC = 615

====

Experiment: Drug concentrations in plasma samples and brain tissue samples after oral administration, LC-MS/MS
Assay type: in vivo, female C57BL/6 mice
Conditions: female, C57BL/6, mouse, brain, 30 mg/kg, 30 mg QD oral, 15 consecutive days, 2Hr after the last dose, mice, read-out: concentration in brain
MEASURED PROPERTY: concentration at 2 h (ng/mL)

- [2H]C([2H])([2H])Oc1c(-c2cnn(C)n2)ccnc1Nc1cc(NC(=O)[C@H]2CC23CC3)ncc1C(=O)CC: 2360

====

Assay: Drug concentrations in plasma samples and brain tissue samples after oral administration, LC-MS/MS
Assay type: in vivo, female C57BL/6 mice
Conditions: female, C57BL/6, mouse, brain, 30 mg/kg, 30 mg BID oral, 15 consecutive days, 2Hr after the last dose, mice, read-out: concentration in brain
MEASURED PROPERTY: concentration at 2 h

* [2H]C([2H])([2H])Oc1c(-c2cnn(C)n2)ccnc1Nc1cc(NC(=O)[C@H]2CC23CC3)ncc1C(=O)CC [Compound 4S] | 2360 ng/mL

====

Assay: Drug concentrations in plasma samples and brain tissue samples after oral administration, LC-MS/MS
Assay type: in vivo, female C57BL/6 mice
Conditions: female, C57BL/6, mouse, brain/plasma, 10 mg/kg, 10 mg QD oral, 15 consecutive days, 2Hr after the last dose, mice, read-out: Ratio (brain tissue to plasma concentration)
MEASURED PROPERTY: Kp at 2 h

• [2H]C([2H])([2H])Oc1c(-c2cnn(C)n2)ccnc1Nc1cc(NC(=O)[C@H]2CC23CC3)ncc1C(=O)CC = 0.788

====

Target: TYK2(JH2) (Homo sapiens (Human))
Sequence (P29597 589-875): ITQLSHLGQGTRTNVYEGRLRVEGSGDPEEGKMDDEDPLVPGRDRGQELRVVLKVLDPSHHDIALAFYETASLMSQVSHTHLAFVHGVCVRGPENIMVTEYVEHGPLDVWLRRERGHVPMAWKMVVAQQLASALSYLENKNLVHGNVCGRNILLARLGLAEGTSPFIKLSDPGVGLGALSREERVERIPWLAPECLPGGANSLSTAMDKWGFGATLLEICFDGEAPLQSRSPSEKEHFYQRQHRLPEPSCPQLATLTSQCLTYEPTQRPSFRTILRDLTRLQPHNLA
Test: Pseudo kinase experiment, TYK2 (JH2), tracer/Tb
MEASURED PROPERTY: IC50 (nM)

- [2H]C([2H])([2H])Oc1c(-c2cnn(C)n2)ccnc1Nc1cc(NC(=O)[C@H]2CC23CC3)ncc1C(=O)CC [Compound 4S]: 0.29

====

Biological target: JAK1 (JH1) (Homo sapiens (Human), UniProt P23458)
Sequence (P23458 875-1153): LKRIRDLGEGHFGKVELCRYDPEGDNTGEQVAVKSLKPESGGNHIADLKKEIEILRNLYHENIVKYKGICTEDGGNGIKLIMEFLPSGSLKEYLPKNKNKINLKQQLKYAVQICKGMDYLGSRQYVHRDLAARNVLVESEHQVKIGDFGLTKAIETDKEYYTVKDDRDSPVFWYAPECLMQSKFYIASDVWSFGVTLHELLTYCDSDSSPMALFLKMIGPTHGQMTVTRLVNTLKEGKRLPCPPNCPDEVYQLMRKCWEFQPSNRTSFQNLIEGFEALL
Test: JAK family kinase experiment, JAK1 (JH1)
pIC50: −log10 of the molar value.
MEASURED PROPERTY: pIC50

- [2H]C([2H])([2H])Oc1c(-c2cnn(C)n2)ccnc1Nc1cc(NC(=O)[C@H]2CC23CC3)ncc1C(=O)CC [Compound 4S]: < 5.00
